The following molecules are shown together with reported growth values.
tested on: DU-145 prostate; test: NCI-60 one-dose screen, 48 h (100 = growth as untreated, 0 = no growth, -100 = all killed); conditions: 10 µM unless noted
This is part of a sample that, as a whole, favours compounds with a hit. Of some 83,000 tested, about 20% had one in any assay.

# molecular-string, growth, %
data = [
    ("CCOC(=O)c1ccc(NC(=O)CCCN(CC)CC)cc1", 105),
    ("CNC(=O)c1cc(Oc2ccc3nc(NC(=O)Nc4cc(C(F)(F)F)cc(C(F)(F)F)c4)sc3c2)ccn1", -39.6),
    ("CN(C)c1ccc(/C=C/c2c(F)cccc2F)cc1", 105),
    ("O=[N+]([O-])c1cccc(/C=C/c2ccccn2)c1", 78.3),
    ("Oc1ccccc1-c1nc2ccccn2c1NCCN1CCOCC1", 102),
    ("COc1cc(C(=O)/C=C/c2c(-c3ccc(F)cc3)nc3ncccn23)cc(OC)c1OC", 31.8),
]

----------
system: SNB-75 CNS; assay: NCI-60 one-dose screen, 48 h; details: 10 µM unless noted
This is part of a sample that, as a whole, favours compounds with a hit. Of some 83,000 tested, about 20% had one in any assay. The source made the active and inactive calls. The calls were made as follows: active = growth percent below 10; inactive = the rest.
Outcomes: 1.0 (active), 0.0 (inactive)

# molecular-string, study-target, assigned-category
records = [
    ("COc1ccc(CN2C(=O)/C(=C\\c3cc(OC)c(OC)c(OC)c3)c3ccccc32)cc1", "SNB-75 CNS", 1.0),
    ("O=C1/C(=C/c2ccccc2[N+](=O)[O-])COc2ccc(O)c(O)c21", "SNB-75 CNS", 0.0),
    ("CCN(CC)CCNc1ccc(C)c2sc3cc(C)ccc3c(=O)c12", "SNB-75 CNS", 0.0),
    ("c1ccc([P+](CCCc2n(Cc3ccc4ccccc4c3)c3ccccc3[n+]2Cc2ccc3ccccc3c2)(c2ccccc2)c2ccccc2)cc1", "SNB-75 CNS", 0.0),
    ("CCOc1ccc(-c2nc3ccc(-c4nc5ccc(N6CCN(C)CC6)cc5[nH]4)cc3[nH]2)cc1OCC", "SNB-75 CNS", 1.0),
]

----------
tested on: SW-620 colon; assay: NCI-60 one-dose screen, 48 h (100 = growth as untreated, 0 = no growth, -100 = all killed); conditions: 10 µM unless noted
About 83,000 compounds went through this panel and 20% of them were active in at least one assay; those are over-represented in the sample as a whole.
The following compounds are shown together with reported growth values.
property: growth (%)

# compound, property, numeric-result
measured = [
    ("COC1=CC(c2ccc[nH]2)=N/C1=C\\c1[nH]c(C)c(C(=O)OCCn2cc(CCC[C@@H]3Cc4cc(O)ccc4C4CC[C@]5(C)[C@@H](O)CC[C@H]5C43)nn2)c1C (stereo not given in full)", "growth", 56.3),
    ("Clc1ccc(-c2nc(NCCc3ccccc3)nc3c(NCCc4ccccc4)cnn23)cc1", "growth", 33.5),
    ("Cc1c(C(=O)O)nnn1-c1nccs1", "growth", 94),
    ("Nc1nc(N)c(-c2ccc(Cl)cc2)c(/C=C/c2ccc([N+](=O)[O-])cc2)n1", "growth", 26.4),
    ("Nc1c(-c2nc3ccc(Br)cc3c(=O)[nH]2)nnn1-c1ccccc1", "growth", 88.1),
    ("Cc1nc(C)c(-c2nn3c(-c4cccc(F)c4)nnc3s2)s1", "growth", 96.8),
    ("CC(C)OC(=O)NNC(=O)c1ccncc1", "growth", 98.2),
    ("O=C(/C=C/C12c3ccccc3C(c3ccccc31)C1C(=O)N(c3ccccc3)C(=O)C12)c1ccccc1 (stereo not given)", "growth", 1.65),
    ("COc1c(C)cnc(CSc2nc(-c3ccc(C)cc3)cn2-c2ccc(Cl)cc2)c1C", "growth", 100),
    ("Clc1ccc(-c2nnc(-c3ccco3)o2)cc1", "growth", 99.5),
    ("O=C(CC12CC3CC(CC(C3)C1)C2)NCCOCCOCCOCCNC(=O)c1cc2c(o1)C(=O)c1ccccc1C2=O", "growth", -10.6),
    ("Oc1[nH]c2ccccc2c1/C=c1/cc2c(c(-c3ccc(F)cc3)n1)=Nc1ccccc1-2", "growth", -10.6),
    ("O=C1C(Cl)C(c2ccccc2Cl)N1n1cnnc1 (stereo not given)", "growth", 94.5),
    ("C[C@@H]1CC[C@@H]2[C@@H]1[C@H](OC(=O)c1ccc3ccccc3c1)[C@]1(C3CCCCC3)C[C@@H](OC(=O)CO)[C@@]2(C)O1", "growth", 65.1),
    ("Cc1cc(Cc2cc(C)cc(C(C)(C)C)c2O)c(O)c(C(C)(C)C)c1", "growth", 39.8),
    ("CCCN1CCN(c2ccc3nc(-c4ccc5nc(-c6ccc(OCC)c(OCC)c6)[nH]c5c4)[nH]c3c2)CC1", "growth", -65.9),
    ("CCN(CC)CCOC(=O)Nc1ccccc1Cl", "growth", 101),
    ("CN(C)c1ccc(/C=N/NC(=O)COc2cc(=O)n(C)c3ccccc23)cc1", "growth", 104),
    ("O=C1/C(=C/c2ccccc2[N+](=O)[O-])COc2ccc(O)c(O)c21", "growth", -38.7),
    ("CCN(CC)CCCC(C)NCc1ccccc1 (stereo not given)", "growth", 105),
]

----------
system: NCI-H226 lung; assay: NCI-60 one-dose screen, 48 h (100 = growth as untreated, 0 = no growth, -100 = all killed); conditions: 10 µM unless noted
About 83,000 compounds went through this panel and 20% of them were active in at least one assay; those are over-represented in the sample as a whole.
property: growth (%)

# compound, study-target, property, readout-units, numeric-result
rows = [
    ("CCC(=O)OC1=C(C)SC2=NC(c3ccc(Cl)c(Cl)c3)=CC(c3cc(OC)c(OC)c(OC)c3)N21 (centres undefined)", "NCI-H226 lung", "growth", "%", 95),
    ("COC(=O)/C(=C\\c1ccc(OC)cc1)C(=O)N1c2ccccc2Sc2ccccc21", "NCI-H226 lung", "growth", "%", 75.1),
    ("C=C(CNCCc1ccc(O)cc1)[C@@H]1CC[C@]2(COC3CCCCO3)CC[C@]3(C)[C@H](CC[C@@H]4[C@@]5(C)CCC(NCCO)C(C)(C)[C@@H]5CC[C@]43C)[C@@H]12 (some centres undefined)", "NCI-H226 lung", "growth", "%", -54.2),
    ("CCCc1cc(=O)oc2c3c(c4c(c12)OC(C)(C)C=C4)O[C@@H](C)[C@H](C)C3=O", "NCI-H226 lung", "growth", "%", 89.8),
    ("CC(C)CCC[C@@H](C)[C@H]1CCC2C3=CCC4C(=O)C=CC(=O)C4C3CC[C@@]21C (some centres undefined)", "NCI-H226 lung", "growth", "%", 42),
    ("O[C@H]1CO[C@H]2[C@@H]1OC[C@@H]2Oc1ccc(Nc2ccnc(Nc3ccc(O[C@H]4CO[C@H]5[C@@H]4OC[C@@H]5O)c(Cl)c3)n2)cc1Cl", "NCI-H226 lung", "growth", "%", 4.09),
    ("COc1cc2nc(Nc3ccc(F)cc3)nc(N)c2cc1OC", "NCI-H226 lung", "growth", "%", 81.7),
    ("COc1ccc(OC)c(/C=C2\\COc3ccc(O)cc3C2=O)c1", "NCI-H226 lung", "growth", "%", 98.5),
    ("COc1ccc(-c2c(N)n[nH]c2-c2ccccc2O)cc1OC", "NCI-H226 lung", "growth", "%", 99.6),
    ("O=C(Nc1ccc(N2CCCCC2)c(Cl)c1)c1ccc(Br)o1", "NCI-H226 lung", "growth", "%", 82.1),
    ("CC(C)(O)c1cccc(F)c1", "NCI-H226 lung", "growth", "%", 105),
    ("Clc1ccc(-c2nc(NCCc3ccccc3)nc3c(NCCc4ccccc4)cnn23)cc1", "NCI-H226 lung", "growth", "%", 99.7),
    ("O=C(CC12CC3CC(CC(C3)C1)C2)NCCOCCOCCOCCNC(=O)c1cc2c(o1)C(=O)c1ccccc1C2=O", "NCI-H226 lung", "growth", "%", -73.6),
    ("CNCCNc1nc2ccccc2c2c(=O)c3cc(F)ccc3oc12", "NCI-H226 lung", "growth", "%", 68),
    ("CCNCCNc1cc(-c2ccc(C(F)(F)F)cc2)c(C#N)c2nc3cc(Cl)c(Cl)cc3n12", "NCI-H226 lung", "growth", "%", 99.8),
    ("COc1ccc(C2=NC(=O)NC2c2ccc(OC)cc2)cc1 (centres undefined)", "NCI-H226 lung", "growth", "%", 74),
    ("Cc1cc(N(CCCNc2ccnc3cc(Cl)ccc23)Cc2ccccn2)nc(N2CCOCC2)n1", "NCI-H226 lung", "growth", "%", 90.9),
    ("O=C1CC(c2ccc3c(c2)OCO3)Nc2cc3c(cc21)OCO3 (centres undefined)", "NCI-H226 lung", "growth", "%", 64.5),
    ("NC(N)=N/N=C/c1ccc(Br)cc1", "NCI-H226 lung", "growth", "%", 72.1),
    ("COc1ccc(OC)c(/C=C2\\COc3ccc(O)c(O)c3C2=O)c1", "NCI-H226 lung", "growth", "%", 85.2),
    ("OC(c1cccc(OCc2ccccc2)c1)c1nnc(-c2ccccc2)o1 (centres undefined)", "NCI-H226 lung", "growth", "%", 66.9),
    ("CN1CCN(c2ccc(Nc3ncc(Cl)c(NC[C@@H]4CCCO4)n3)cc2)CC1", "NCI-H226 lung", "growth", "%", 8.99),
    ("CCCCOC(=O)c1ccc(NC(=O)C(C)N2CCOCC2)cc1 (centres undefined)", "NCI-H226 lung", "growth", "%", 84.3),
    ("O=c1[nH]c(=O)n(C2CC(O)C(CO)O2)cc1CO (centres undefined)", "NCI-H226 lung", "growth", "%", 98.2),
    ("Clc1ccc(-c2nnc(Cn3ccnc3)o2)cc1", "NCI-H226 lung", "growth", "%", 102),
    ("CC(C)OCCCNCC(=O)Nc1ccc(S(=O)(=O)c2ccc(NC(=O)CNCCCOC(C)C)cc2)cc1", "NCI-H226 lung", "growth", "%", 104),
    ("CCOC(=O)C1=C(C)NC(SCc2nnc(-c3ccc(Cl)cc3)o2)=NC1c1ccc(Cl)cc1Cl (centres undefined)", "NCI-H226 lung", "growth", "%", 79),
    ("O=C1c2ccccc2C2(c3ccc(O)cc3)c3ccccc3Oc3cccc1c32 (centres undefined)", "NCI-H226 lung", "growth", "%", 85.9),
    ("CN1CCN(C(=O)[C@]23CCC(C)(C)C[C@@H]2C2=CC[C@@H]4[C@@]5(C)Cc6c([nH]c7ccccc67)C(C)(C)[C@@H]5CC[C@@]4(C)[C@]2(C)CC3)CC1", "NCI-H226 lung", "growth", "%", 86.9),
    ("Cc1[nH]c(-c2nc3ccccc3[nH]2)c(C)c1C(=O)N1CCOCC1", "NCI-H226 lung", "growth", "%", 91.4),
    ("Cc1cc(-c2ccc(N(C)C)cc2)c2sc(=O)[nH]c2n1", "NCI-H226 lung", "growth", "%", 64.6),
    ("Cc1cccc(-c2cc(O)c(C(=O)N3CCOCC3)s2)c1", "NCI-H226 lung", "growth", "%", 68),
    ("COc1cc2oc(-c3cccc(C(=O)Nc4ccc(C)cc4)c3)cc(=O)c2c(OC)c1OC", "NCI-H226 lung", "growth", "%", 62.5),
    ("O=S(=O)(NCCNc1cc(-c2c(-c3cccc(O)c3)nc3sccn23)ccn1)c1ccc(Cl)cc1", "NCI-H226 lung", "growth", "%", 62.4),
    ("COc1ccc(-c2nc3ncccn3c2/C=C/C(=O)c2cc(OC)c(OC)c(OC)c2)cc1", "NCI-H226 lung", "growth", "%", -24.4),
    ("COc1cc(/C=C2\\C=C(c3ccccc3)N(CCc3ccccc3)C2=O)cc(OC)c1OC", "NCI-H226 lung", "growth", "%", 67.6),
    ("C=C1C(=O)O[C@H]2[C@H]1CC/C(COC(=O)/C=C\\C(=O)NCc1ccc(Cn3c(=O)sn(-c4ccc(C#N)cc4)c3=O)cc1)=C\\CC[C@@]1(C)O[C@@H]21", "NCI-H226 lung", "growth", "%", -69.5),
    ("CCC(C)NCc1ccccc1 (centres undefined)", "NCI-H226 lung", "growth", "%", 92.2),
    ("Cc1cc(=O)c2cc3nc(-c4cccnc4)oc3c(Br)c2o1", "NCI-H226 lung", "growth", "%", 116),
]
